- system_name: recombinant human MAPKAP-K2 (Homo sapiens, UniProt P49137)
- Sequence (P49137 whole entry): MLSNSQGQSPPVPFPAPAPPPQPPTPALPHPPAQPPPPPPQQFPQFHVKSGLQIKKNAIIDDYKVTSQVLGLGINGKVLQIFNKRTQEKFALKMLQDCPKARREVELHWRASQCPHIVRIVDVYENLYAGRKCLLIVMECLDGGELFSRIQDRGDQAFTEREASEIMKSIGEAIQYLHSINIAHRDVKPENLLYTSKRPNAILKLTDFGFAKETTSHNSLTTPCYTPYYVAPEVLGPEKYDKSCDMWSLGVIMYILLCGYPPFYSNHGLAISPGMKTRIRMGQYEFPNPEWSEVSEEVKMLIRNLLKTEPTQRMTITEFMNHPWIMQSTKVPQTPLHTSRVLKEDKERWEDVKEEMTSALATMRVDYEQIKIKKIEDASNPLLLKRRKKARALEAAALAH
- assay: Inhibition of MAPKAP-K2 enzyme activity (33P-ATP peptide substrate phosphorylation)
- stated_conditions: recombinant human MAPKAP-K2 10 mU, room temperature 30 min, peptide substrate Lys-Lys-Leu-Asn-Arg-Thr-Leu-Ser-Val-Ala; read-out: Activity strength (IC50 against MAPKAP-K2)
pIC50: −log10 of the molar value.
assay_metric: pIC50

> print(dat)
                                   compound       reading
1  CCOc1ccc(Nc2c3cc(CO)n([C@H]4CCCNC4)c3nc3ccnn23)cc1 [F-002]  4.30 to 5.00
2  CCOc1ccc(Nc2c3c(nc4ccnn24)N(C2CCN(Cc4ccccc4)C2)CCC3)cc1 (centres unmarked) [B-016]  4.30 to 5.00
3  CCOc1ccc(Nc2c3c(nc4ccnn24)N(C2CCN(CC)C2)CCC3)cc1 (centres unmarked) [B-022]  4.30 to 5.00
4  CCOc1ccc(Nc2c3c(nc4ccnn24)N(C2CCCNC2)CCC3)cc1 (centres unmarked) [B-014]        > 5.00

Consider the record given below.
Qu. Report pIC50, nothing else, for this compound: Cc1nc2ccc(Nc3c4c(nc5ccnn35)N([C@H]3CCCNC3)CC4)cc2s1 [A-022]
Ans. > 5.00

Attribution: patent US7473694B2
